- System: UO-31 renal
- test: NCI tumour cell line growth inhibition, 48 h
Answer each item with its documented TGI.

Provide TGI for all items below, preserving their order.
1. C=CCC(CC=O)(C(=O)OCC)C(=O)OCC
2. Cc1cccc2c(N)c3cccc(C(=O)NCC[N+](C)(C)Cc4sccc4[N+](=O)[O-])c3nc12
3. COc1ccc(OC)c(C23CCCC(C2)N(C)CC3)c1 (stereo unspecified)
4. CC(C)(C)CC(C)(C)c1cc2c(O)c(c1)Cc1cc(C(C)(C)CC(C)(C)C)cc(c1O)Cc1cc(C(C)(C)CC(C)(C)C)cc(c1O)Cc1cc(C(C)(C)CC(C)(C)C)cc(c1O)Cc1cc(C(C)(C)CC(C)(C)C)cc(c1O)Cc1cc(C(C)(C)CC(C)(C)C)cc(c1O)C2

Result ::
1: > 100 µM; 2: > 100 µM; 3: > 100 µM; 4: > 100 µM
